System: ICR male mice
Assay: Anti-Hypoxic Activity (survival time in 4% O2 + 96% N2)
Assay type: in vivo
Conditions: Mus musculus, ip; 100 mg/kg i.p., 30 minutes before mixed gas; control = 100; read-out: Anti-hypoxic Activity
MEASURED_PARAMETER: response vs control in vivo at 100 mg/kg (%)

- O=C([C@@H]1CCCN1C(=O)CC1Cc2ccccc2C1)N1CCCC1: 141
- O=C([C@@H]1CCCN1C(=O)CC1CCc2ccccc2C1)N1CCCC1 (some centres unmarked): 235
- O=C[C@@H]1CCCN1C(=O)[C@@H]1CCCN1C(=O)CC1=Cc2ccccc2C1: 168
- O=C([C@@H]1CSCN1C(=O)CC1Cc2ccccc2C1)N1CCSC1: 131
- COC1=C(OC)C(=O)C(CCCCCCCCCCO)=C(C)C1=O [Idebenone, reference compound]: 140

---

Tested on: ICR male mice
Experiment: Anti-Hypoxic Activity (survival time in 4% O2 + 96% N2)
Assay type: in vivo
Conditions: Mus musculus, ip; 100 mg/kg i.p., 30 minutes before mixed gas; control = 100; read-out: Anti-hypoxic Activity
MEASURED_PARAMETER: response vs control in vivo at 100 mg/kg (%)

• O=C([C@@H]1CSCN1C(=O)CCCC1Cc2ccccc2C1)N1CCCC1 = 291
• O=C(O)[C@@H]1CCCN1C(=O)[C@@H]1CCCN1C(=O)CC1Cc2ccccc2C1 = 137
• O=C([C@@H]1CSCN1C(=O)CC1Cc2ccccc2C1)N1CCCC1 = 127
• O=C([C@@H]1CCCN1C(=O)CC1=Cc2ccccc2C1)N1CCCC1 = 155

---

Biological target: UniProtKB A0A8I3N6C8
Sequence (A0A8I3N6C8 1-710): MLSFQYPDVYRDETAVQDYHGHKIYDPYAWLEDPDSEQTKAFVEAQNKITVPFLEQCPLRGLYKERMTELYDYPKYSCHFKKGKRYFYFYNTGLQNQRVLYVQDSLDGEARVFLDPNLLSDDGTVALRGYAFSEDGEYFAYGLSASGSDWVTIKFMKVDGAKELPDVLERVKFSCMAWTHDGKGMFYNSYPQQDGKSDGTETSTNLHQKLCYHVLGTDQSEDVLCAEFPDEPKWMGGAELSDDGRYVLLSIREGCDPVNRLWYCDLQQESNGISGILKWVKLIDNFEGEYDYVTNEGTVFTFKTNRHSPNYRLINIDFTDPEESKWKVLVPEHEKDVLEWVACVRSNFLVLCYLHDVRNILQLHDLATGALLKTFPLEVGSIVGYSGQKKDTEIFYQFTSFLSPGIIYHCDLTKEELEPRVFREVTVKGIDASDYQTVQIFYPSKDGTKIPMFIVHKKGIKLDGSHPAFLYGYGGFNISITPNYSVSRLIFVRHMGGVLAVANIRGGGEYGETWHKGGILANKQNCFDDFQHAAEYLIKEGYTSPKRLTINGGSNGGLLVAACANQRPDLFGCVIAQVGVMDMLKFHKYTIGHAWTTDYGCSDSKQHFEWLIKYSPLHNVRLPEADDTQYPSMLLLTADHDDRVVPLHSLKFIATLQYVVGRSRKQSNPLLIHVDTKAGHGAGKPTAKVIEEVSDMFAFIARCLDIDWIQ
MEASURED_PARAMETER: IC50 (µM)

* O=C([C@@H]1CCCN1C(=O)CC1=Cc2ccccc2C1)N1CCSC1 [Example 18] | 0.043
